Reported % inhibition of gametocyte viability values for the following compounds.
Test system: Plasmodium falciparum NF54 stage IV/V gametocytes
Test: % inhibition of gametocyte viability (luciferase reporter); higher = more inhibition
Settings: 5 µM; 48 h
measurement_label: % inhibition of gametocyte viability (%)

1) COc1cc(NC(=O)CN2C(=O)NC(c3ccccc3)(c3ccccc3)C2=O)cc(OC)c1 | 8.59
2) Cc1[nH]c2ccccc2c1CCNCc1ccc(/C=C/C(=O)NO)cc1 | 3.05

---

Test system: Plasmodium falciparum NF54 stage IV/V gametocytes
Assay: % inhibition of gametocyte viability (PrestoBlue); higher = more inhibition
Details: 5 µM; 48 h
Each record here notes measured % inhibition of gametocyte viability.
measurement_label: % inhibition of gametocyte viability (%)

1. CC(Oc1ccc(Cl)cc1Cl)C(=O)NCc1ccc2c(c1)OCO2 (stereo not drawn) | 35.3
2. O=C(O)CCNC(=O)c1ccccc1 | -0.209
3. c1cc(CN2CCCNCCNCCCNCC2)ccc1CN1CCCNCCNCCCNCC1 | 31
4. COc1ccc2c(c1OC)C(=O)OC2C1c2c(cc3c(c2OC)OCO3)CCN1C (stereo not drawn) | 5.61
5. CCCCCCCCCN1C[C@@H](O)[C@H](O)[C@@H](O)[C@@H]1CO | 3.2
6. COc1c(F)c(F)cc2c(=O)c(C(=O)O)cn(C3CC3)c12 | 16.9
7. CO/N=C(\C(=O)N[C@@H]1C(=O)N2C(C(=O)OCOC(=O)C(C)(C)C)=C(/C=C\c3scnc3C)CS[C@H]12)c1csc(N)n1 | 1.37
8. O=P(O)(O)C(CCCc1cccc(Oc2ccccc2)c1)S(=O)(=O)O (stereo not drawn) | 30.6
9. COc1ccc(C(C)(C)C)cc1NC(=O)C(=O)c1ccc(OCCN2CCOCC2)c2ccccc12 | 26.4
10. O=c1ccc2ncc(=O)n3c2n1CC3CN1CCC(NCc2cc3c(cn2)OCCC3)CC1 (stereo not drawn) | 28.4
11. NC(=O)c1nccn([C@@H]2O[C@H](CO)[C@@H](O)[C@H]2O)c1=O | 19.8
12. CN(C)CCCOc1ccc(-c2ccc3ncc4c(c3c2)n(C2CCOCC2)c(=O)n4C)cn1 | 91.9
13. CC(N)C12CC3CC(CC(C3)C1)C2 (stereo not drawn) | 25
14. COc1c(NC(=O)[C@H]2CC[C@@H](COc3ccc([N+](=O)[O-])cc3)CC2)c(F)cc2c(=O)c(C(=O)O)cn(C3CC3)c12 | 23
15. Oc1cccc(C(Nc2nccs2)c2ccc3cccnc3c2O)c1 (stereo not drawn) | 65.5
16. N[C@@H]1CN(c2c(F)cc3c(=O)c(C(=O)O)cn([C@@H]4C[C@@H]4F)c3c2Cl)CC12CC2 | 10.3
17. O=C(N[C@H](Cc1cccc2ccccc12)C(=O)NCCc1c[nH]cn1)C1Cc2ccccc2C1 | 32.6
18. Nc1nc(=O)c(Br)c(-c2cccc(Cl)c2)[nH]1 | 21
19. Oc1ccc2[nH]c(-c3ccccc3)nc2c1 | 13.2
20. C[C@H]1COc2c(N3CCN(C)CC3)c(F)cc3c(=O)c(C(=O)O)cn1c23 | 18
21. C[C@@H](O)[C@H](N)C(=O)NS(=O)(=O)c1cccc(-c2ccc3[nH]ncc3c2)c1 | 19.7
22. O=C(c1nc2c(C(F)(F)F)cc(C3CC3)cn2c1Cl)N1CCN([C@H]2CC[C@H](O)CC2)C(=O)C1 | 6.18

---

System: HepG2-A16-CD81;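 also: HepG2-A16-CD81 hepatoma cells plated as in the liver-stage assay but without sporozoites, with DMSO wells as negative and 25 µM puromycin as positive control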
Assay: % inhibition of HepG2 viability (CellTiter-Glo); higher = more toxic
Details: 5 µM
measurement_label: % inhibition of HepG2 viability (%)

1) NC(=O)c1cnccn1 | -2.12
2) NCCCc1ccccc1C(=O)Nc1ncc([N+](=O)O)s1 | 0.282
3) Cc1c[nH]c(=O)nc1NCc1ccccc1 | -0.05
4) Cc1nc(N(C)C(=O)Cc2ccc(-c3ccccn3)cc2)sc1S(N)(=O)=O | -0.405
5) CCc1c(OCC2CCC2)c2cc(F)ccc2[nH]c1=O | -2.38
6) CC(C)(C)c1ccc(C(=O)NC(=O)N2CCCc3ccccc32)cc1 | -0.159
7) CSc1ccc2c(c1)C(N1CCN(C)CC1)Cc1ccccc1S2 (stereo not drawn) | -7.96
8) O=C(NO)C1(CS(=O)(=O)c2ccc(Oc3ccc(Cl)cc3)cc2)CCOCC1 | 7.05
9) O=C(Nc1ncc(Cc2cccc3ccccc23)s1)C1CCCCC1 | 7.25
10) NC(=S)N/N=C/c1ncccc1N | -22.6
11) Cc1ccc(NC(=O)c2cc(Cl)ccc2O)cc1 | 29.4
12) Nc1nc(-c2ccccc2)nc2c1ncn2[C@@H]1O[C@H](COS(=O)(=O)NC(=O)c2ccccc2O)[C@@H](O)[C@H]1O | 3.69
13) O=C1NC(=O)C(Br)=C1Br | 5.44
14) CNc1nc(=O)[nH]cc1F | -2.31
15) Fc1ccc(-n2cc(Cn3c(-c4cccc(F)c4)nc4ccccc43)nn2)cc1 | -1.61
16) O=C1CCC(N2C(=O)c3ccccc3C2=O)C(=O)N1 (stereo not drawn) | -2.75
17) Cc1onc(-c2ccccc2)c1-c1ccc(S(N)(=O)=O)cc1 | -1.58
18) Cc1cc(C2CCCCC2)n(O)c(=O)c1 | 13.4
19) FC(F)(F)c1cc(C(F)(F)F)c2ccc3nc(-c4nnco4)cn3c2n1 | 8.21
20) Oc1c(C(Nc2nc3ccccc3s2)c2ccc(OC(F)F)cc2)ccc2cccnc12 (stereo not drawn) | 45.6
21) Cc1ccc(NC(=O)c2ccc(CN3CCN(C)CC3)cc2)cc1Nc1nccc(-c2cccnc2)n1 | 6.65
22) N#Cc1c(F)c(Cl)c(NCc2ccccc2)c(C#N)c1F | 2.78
23) CCOc1noc2cc(OCCC3CCN(c4ccc(C)nn4)CC3)ccc12 | 1.58

---

# % inhibition of gametocyte viability values compiled below
Tested on: Plasmodium falciparum NF54 stage IV/V gametocytes
Test: % inhibition of gametocyte viability (luciferase reporter); higher = more inhibition
Conditions: 5 µM; 48 h
measurement_label: % inhibition of gametocyte viability

1) Cn1cncc1[C@@](N)(c1ccc(Cl)cc1)c1ccc2c(c1)c(-c1cccc(Cl)c1)cc(=O)n2C | < 0%
2) CCCCCCCc1[nH]c2ccccc2c(=O)c1O | < 0%
3) CC(C)(C)c1cccc(-c2nc3cc(C(=N)N)ccc3[nH]2)c1O | 14.8%
4) CC(C)N(c1cc(-c2ccccc2)sc1C(=O)O)C(=O)[C@H]1CC[C@H](C)CC1 | < 0%
5) CC(C)C(=O)N[C@H]1[C@H]([C@H](O)[C@H](O)CO)OC(C(=O)O)=C[C@@H]1N=[N+]=[N-] | < 0%
6) O=C(O)c1ccc(-n2nc(-c3ccccc3O)nc2-c2ccccc2O)cc1 | < 0%
7) CCC(CC)[C@H](NC(C)=O)[C@@H]1[C@H](O)[C@@H](C(=O)O)C[C@H]1NC(=N)N | 2.25%
8) Fc1ccc2c(/C=C/c3nnn[nH]3)c[nH]c2c1 | 4.42%
9) CCC[C@@H]1C[C@@H](C(=O)N[C@@H]([C@H]2O[C@H](SC)[C@H](O)[C@@H](O)[C@H]2O)[C@H](C)Cl)N(C)C1 | < 0%
10) COC(=O)Nc1nc2cc(Sc3ccccc3)ccc2[nH]1 | < 0%
11) NS(=O)(=O)c1ccc(NC(=O)NC(c2ccccc2)c2ccccc2)cc1 | < 0%
12) O=C(NC(=O)N1CCCc2ccccc21)c1ccc(Cl)cc1Cl | < 0%
13) CC1CN(c2ncnc3c2c(-c2ccccc2)cn3-c2ccc(F)cc2)CC(C)O1 (stereo unspecified) | < 0%
14) CC(C)(C)c1ccc(C(=O)NC(=O)N2CCCc3ccccc32)cc1 | < 0%
15) CCOc1ccc(C(=O)NCCc2ccccc2)cc1 | 64.1%
16) Clc1cccc(-c2nnc(-c3ccccc3)o2)c1 | 30.2%
17) O=C(c1cc(O)nc2ccccc12)N1CCN(c2ccccc2)CC1 | < 0%
18) Nc1nc(O)c2ncn(COC(CO)CO)c2n1 | < 0%
19) O=C(c1ccc(F)cc1)N1CCN2C(=O)c3ccccc3C12c1ccccc1 (stereo unspecified) | < 0%
20) O=C(O)CCNC(=O)c1ccccc1 | 6.13%
21) CC1(C)C[C@H]1C(=O)N/C(=C\CCCCSC[C@@H](N)C(=O)O)C(=O)O | < 0%

---

Test system: Plasmodium falciparum NF54 stage IV/V gametocytes
Assay: % inhibition of gametocyte viability (ATP bioluminescence); higher = more inhibition
Conditions: 1 µM; 24 h
Quick reference for % inhibition of gametocyte viability among some molecules
measurement_label: % inhibition of gametocyte viability (%)

1. Cc1ncc([N+](=O)[O-])n1CC(C)O (stereo unspecified) | 4.81
2. CCc1ccccc1OCCN1CCCCCC1 | 6.82
3. CN(C)CCCNC(=O)c1ccc(-c2cc(O)c3ncccc3c2)cc1 | 71
4. CN(C)c1[nH]c(=O)ncc1F | 2.44
